# Measurement description: Quantitative highthroughput screen to assess conditional lethalithy of NOMO1 cells grown in RPMI1640 with dialyzed fetal bovine serum (RPMI+ds) (AID 1963877); further: nearly all actives have a fitted effect of over 30% in size;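 on viability: 100% = DMSO control wells and 0% = empty wells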
# Study conditions: NOMO1 in RPMI+dialyzed FBS viability, ATP luminescence, 48 h; series mostly up to 45.8 µM
Records with an inconclusive call do not appear. Active and inactive are the calls of the source. The call rests on the fitted dose curve; in most records, active means well fitted cell-killing curve with a large enough effect; inconclusive means small, poorly fitted or top-dose-only effect; inactive means flat fitted curve, though single readings scatter.
Can you answer with just one of these options? active, inactive

Tell me the assay call for CC=C1C2C=C(C)CC1(N)c1ccc(=O)[nH]c1C2 (centres undefined) please.
inactive

Tell me the assay call for `COc1ccc2c(c1)CC[C@H]1[C@@H]2CC[C@]2(C)[C@@H](NCCCCCCN3C(=O)C=CC3=O)CC[C@H]12` please.
inactive

Tell me the assay call for `CC(=O)[C@]1(O)Cc2c(O)c3c(c(O)c2[C@@H](O[C@H]2C[C@H](N)[C@@H](O)[C@H](C)O2)C1)C(=O)c1ccccc1C3=O` please.
active

Tell me the assay call for `Cc1ccc(Nc2cc(-c3cccc(N4C(=O)c5ccccc5C4=O)c3)ncn2)cc1NS(C)(=O)=O` please.
inactive

Tell me the assay call for `CC(=O)OCC(=O)[C@@]1(O)CC[C@H]2[C@@H]3CCC4=CC(=O)CC[C@]4(C)[C@@H]3C(=O)C[C@@]21C` please.
inactive

Tell me the assay call for `Nc1nc(Nc2ccc(S(N)(=O)=O)cc2)nn1C(=O)c1c(F)cccc1F` please.
active

Tell me the assay call for CNC1CCC(N(Cc2cccc(-c3ccncc3)c2)C(=O)c2sc3ccccc3c2Cl)CC1 (centres undefined) please.
active

Tell me the assay call for `COc1ccc2nc3cc(Cl)ccc3c(Nc3cc(CN4CCCC4)c(O)c(CN4CCCC4)c3)c2n1` please.
inactive

Tell me the assay call for `Nc1ccccc1NC(=O)c1ccc(CNc2nccc(-c3cccnc3)n2)cc1` please.
active

----------
Would you mind telling me the reported viability (% of control) of each entry?
# Measurement description: Viability qHTS for spleen associated tyrosine kinase inhibitor (SYKi) naive MV4-11 cells (AID 1963823); further: nearly all actives have a fitted effect of over 40% in size
# Study conditions: MV4-11 AML viability, CellTiter-Glo luminescence, 72 h; series mostly up to 45 µM
Records with an inconclusive call do not appear. The source made the active and inactive calls. The call rests on the fitted dose curve; in most records, active means well fitted cell-killing curve with a large enough effect; inconclusive means small, poorly fitted or top-dose-only effect, or effect the other way; inactive means no such curve, though single readings can be large or run the other way.

Please fill in: viability (% of control) reported for C[C@@H]1O[C@@H](O[C@H]2[C@H](O[C@H]3CC[C@@]4(C)C(CC[C@]5(C)C4CC=C4[C@@H]6CC(C)(C)CC[C@]6(C(=O)O[C@@H]6OC[C@H](O)[C@H](O)[C@H]6O[C@@H]6O[C@@H](C)[C@H](O[C@@H]7O[C@H](CO)[C@@H](O)[C@H](O)[C@H]7O)[C@H](O)[C@H]6O)[C@H](O)C[C@]45C)C3(C)C)O[C@H](CO)[C@@H](O[C@@H]3OC[C@@H](O)[C@H](O)[C@H]3O)[C@@H]2O)[C@H](O)[C@H](O)[C@H]1O (stereo not given in full) = 79.8% [at 9.25 µM] (inactive)

Please fill in: viability (% of control) reported for C[C@@H]1O[C@@H](O[C@H]2[C@H](OC(=O)[C@]34CCC(C)(C)C[C@H]3C3=CCC5[C@@]6(C)C[C@H](O)[C@H](O[C@@H]7O[C@H](CO[C@@H]8OC[C@H](O)[C@H](O)[C@H]8O)[C@@H](O)[C@H](O)[C@H]7O)C(C)(C)C6CC[C@@]5(C)[C@]3(C)C[C@H]4O)OC[C@@H](O)[C@@H]2O)[C@H](O)[C@H](O[C@@H]2OC[C@](O)(CO)[C@H]2O)[C@H]1O[C@@H]1OC[C@H](O)[C@H](O[C@@H]2OC[C@@H](O)[C@H](O)[C@H]2O)[C@H]1O (stereo not given in full) = 72% [at 9.25 µM] (inactive)

Please fill in: viability (% of control) reported for `N=C(N)N1CCc2ccccc2C1` = 81.1% [at 4.97 µM] (inactive)

Please fill in: viability (% of control) reported for `O=C(O)CN(CCOCCOCCN(CC(=O)O)CC(=O)O)CC(=O)O` = 65.2% [at 0.588 µM] (inactive)

Please fill in: viability (% of control) reported for `O=C(O)Cc1cccc(-c2cc(CCCCCCc3ccc(O[C@H]4O[C@H](CO)[C@@H](O)[C@H](O)[C@@H]4O)c(-c4cccc(CC(=O)O)c4)c3)ccc2O[C@H]2O[C@H](CO)[C@@H](O)[C@H](O)[C@@H]2O)c1` = 99.5% [at 0.588 µM] (inactive)
